- System: Nuclear hormone receptor DAF-12 (Heterodera glycines), GAL4 fusion
- measurement_description: H. glycines DAF-12 receptor agonists, primary screen, cell-based, luminescence, HEK293, GAL4 fusion, UAS-luciferase (AID 687014);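 also: 0% = DMSO wells and 100% = sodium butyrate wells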
- protocol_conditions: HEK293 GAL4-hgDAF12 UAS-luciferase reporter, agonist luminescence; at 6.8 µM; active compounds read high; normalized to butyrate control
Hit rate of the full screen: of about 370,000 compounds, about 6,800 (1.8%) were called active. The full list was thinned out, with actives kept by preference.
endpoint_label: activation (%)
Report only the number, with the unit % understood.

Q) What measured activation goes with CCC(=O)Nc1ccc2nn(-c3ccc(F)cc3)nc2c1 ?
A) 12.1

Q) What would you report for CCOC(=O)c1nnn(CC(=O)Nc2cccc(F)c2)c1C(=O)OCC ?
A) -0.57

Q) What would you report for CCn1c(SCC(C)=O)nc2sc3c(c2c1=O)CCCC3 ?
A) -0.6

Q) What would you report for Cc1ccc2nc(-c3ccc(CN4CCC(n5cc(-c6ccccc6)[nH]c5=O)CC4)cc3)c(-c3ccccc3)nc2c1 ?
A) 0.94

Q) What would you report for COc1cccc(C(NC(C)=O)c2nc(-c3cnc4ccccc4c3)cs2)c1 (stereo not given) ?
A) -1

Q) What would you report for CC(C)c1cccc(-c2csc(C(O)c3ccccc3)n2)c1 (stereo not given) ?
A) 5.67

Q) What would you report for Cc1cccc(NC(=O)Nc2ccc3c(c2)OCO3)n1 ?
A) 14.2

Q) What would you report for OC(c1ccccc1)c1nc(-c2cnc3ccccc3c2)cs1 (stereo not given) ?
A) 22.6

Q) What would you report for CC(C)CNc1cccc2c1S(=O)(=O)N(Cc1cn(Cc3ccccc3C(F)(F)F)nn1)Cc1ccccc1O2 ?
A) -3.87

Q) What would you report for O=C(C(=O)N1CCC(CNS(=O)(=O)Cc2ccccc2)CC1)c1cc2ccccc2o1 ?
A) -2.92
